Tested on: p388 mouse lymphoma
assayName: Growth suppressing activity to leukemia cell, Alamar Blue
Format: cell-based
runConditions: 72 h, p388, 3 days, read-out: Multiplication suppressing activity IC50
pIC50: −log10 of the molar value.
attributeMeasured: pIC50

1) CCC(O)C(C)C1OC1CC(C)/C=C/C=C(\C)C1OC(=O)CC(O)CCC(C)(O)C(OC(C)=O)/C=C/C1C (stereo not shown) [11107B] ... 8.70

----------
System: H460, U251, BSY-1, MDA-MB435, PC-3, DU145, OVCAR-3, WiDr and B16 melanoma cells
assayName: Growth suppressing activity to various cancer cells, Alamar Blue
Type: cell-based, human; mouse
runConditions: 72 h; range over nine cancer cell lines, 3 days; read-out: growth suppressing activity IC50 values for the studied cell lines
attributeMeasured: IC50

1) CCC(O)C(C)C1OC1CC(C)/C=C/C=C(\C)C1OC(=O)CC(O)CCC(C)(O)C(OC(C)=O)/C=C/C1C (stereo not shown) [11107B] ... 0.9 to 2.9 nM

----------
Tested on: transcription from VEGF promoter
assayName: VEGF transcription-suppressing activity, VEGF-PLAP reporter in U251/1-8 cell
Format: cell-based
runConditions: Homo sapiens, U-251; U251/1-8 cell, PLAP activity, low oxygen 18 hours; read-out: VEGF transcription suppressing activity (IC50: nM)
# IC50 per record follows
attributeMeasured: IC50

1) CCC(O)C(C)C1OC1CC(C)/C=C/C=C(\C)C1OC(=O)CC(O)CCC2(CO2)C(OC(C)=O)/C=C/C1C (stereo not shown) [11107AM] ... 2.6 nM
2) CCC(O)C(C)C1OC1CC(C)(O)/C=C/C=C(\C)C1OC(=O)CC(O)CCC(C)(O)C(OC(C)=O)/C=C/C1C (stereo not shown) [11107D] ... 6.6 nM
3) CCC(O)C(C)C1OC1CC(C)/C=C/C=C(\C)C1OC(=O)CC(O)CC(O)C(C)(O)C(OC(C)=O)/C=C/C1C (stereo not shown) [11107K] ... 2.7 nM
4) CCC(O)C(C)C1OC1CC(C)/C=C/C=C(\C)C1OC(=O)CC(O)CC(=O)C(C)(O)C(OC(C)=O)/C=C/C1C (stereo not shown) [11107BH] ... 2.6 nM

----------
Tested on: U937 human histcytic lymphoma
assayName: Growth suppressing activity to leukemia cell, Alamar Blue
Assay type: cell-based
runConditions: U-937, 72 h, U937, 3 days, read-out: Multiplication suppressing activity IC50
Method: Dami human blood megakaryocytic cell, MOLT 4 human acute lymphoblastic cell, K562 human chronic myelogenous cell, U937 human histcytic lymphoma and p388 mouse lymphoma cultured in RPMI 1640 (manufactured by SIGMA Co., Ltd.) containing 10% fetal calf serum were dispensed in 96-well plates by 2×10^3 cells/180 μl, and they were cultured at 37° C. overnight in a CO2 incubator (5% CO2). […]
pIC50: −log10 of the molar value.
attributeMeasured: pIC50

1) CCC(O)C(C)C1OC1CC(C)/C=C/C=C(\C)C1OC(=O)CC(O)CCC(C)(O)C(OC(C)=O)/C=C/C1C (stereo not shown) [11107B] ... 8.96

----------
Tested on: transcription from VEGF promoter
assayName: VEGF transcription-suppressing activity, VEGF-PLAP reporter in U251/1-8 cell
Assay type: cell-based
runConditions: Homo sapiens, U-251; U251/1-8 cell, PLAP activity, low oxygen 18 hours; read-out: VEGF transcription suppressing activity (IC50: nM)
# IC50 per record follows
attributeMeasured: IC50 (nM)

1) CCC(=O)C(C)C1OC1CC(C)/C=C/C=C(\C)C1OC(=O)CC(O)CCC(C)(O)C(OC(C)=O)/C=C/C1C (centres unmarked) [11107C] ... 8.2
2) CC(=O)OC1/C=C/C(C)C(/C(C)=C/C=C/C(C)CC2OC2C(C)C(C)O)OC(=O)CC(O)CCC1(C)O (centres unmarked) [11107J] ... 5.9
3) CCC(OC(C)=O)C(C)C1OC1CC(C)/C=C/C=C(\C)C1OC(=O)CC(O)CCC(C)(O)C(OC(C)=O)/C=C/C1C (centres unmarked) ... 1.6
4) CCC(O)C(C)C1OC1CC(C)/C=C/C=C(\C)C1OC(=O)CC(O)/C=C/C(C)(O)C(OC(C)=O)/C=C/C1C (centres unmarked) [11107H] ... 3.1
5) CCC(O)C(C)C1OC1CC(C)/C=C/C=C(\C)C1OC(=O)CC(O)CCC(C)(O)C(OC(C)=O)/C=C/C1C (centres unmarked) [11107B] ... 1.8
